B1: Peroxisome proliferator-activated receptor delta, residues 71 to 145; numbered along this chain, Q03181 (parent)
chain: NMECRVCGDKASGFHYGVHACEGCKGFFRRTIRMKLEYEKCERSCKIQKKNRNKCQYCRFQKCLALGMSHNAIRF

- Variants of: B1
- assayName: abundance fitness (aPCA) (normalised: wild type 0, dead -1); higher = more abundant; growth selection in yeast, the domain comes from the species named
- recordedConditions: Homo sapiens
parameter: abundance fitness
// return just the number, without any unit appended

{"mutationSpec": "H70F", "parameter": "abundance fitness", "reportedResult": 0.039}
{"mutationSpec": "K50R", "parameter": "abundance fitness", "reportedResult": -0.06}
{"mutationSpec": "F28Q", "parameter": "abundance fitness", "reportedResult": -0.808}
{"mutationSpec": "Q61M", "parameter": "abundance fitness", "reportedResult": -0.061}
{"mutationSpec": "C58A", "parameter": "abundance fitness", "reportedResult": -0.688}
{"mutationSpec": "K25G", "parameter": "abundance fitness", "reportedResult": 0.178}
{"mutationSpec": "A72Y", "parameter": "abundance fitness", "reportedResult": -0.156}
{"mutationSpec": "L66G", "parameter": "abundance fitness", "reportedResult": -0.419}
{"mutationSpec": "F75Q", "parameter": "abundance fitness", "reportedResult": 0.301}
{"mutationSpec": "R43A", "parameter": "abundance fitness", "reportedResult": -0.064}

Consider the variant R74Q and give its recorded abundance fitness.
0.284

Output measured abundance fitness for this item: A72R
-0.257

Return reported abundance fitness. Input variant: R52I
0.012
